test: Antioxidant activity assessed as inhibition of DPPH radical scavenging activity incubated for 30 mins under dark condition by absorbance based method; format: functional
Readout name: pIC50
In simple prose, pIC50 is minus the logarithm base ten of a concentration in moles per litre.

Using known records, supply pIC50 for CC1=NN(c2ccccc2)C(=O)C1
4.63

----------
assay: AUC in plasma of male Kunming mouse at 10 mg/kg, iv measured for 0.083 to 24 hrs by LC-MS/MS analysis; assay type: ADME, organism-based; conditions: time 0.083-24 hrs
AUC by entry:
Record the value in ng·h/mL, omitting the unit from your answer.

[
  {
    "Smiles notation": "N#Cc1cccc(-c2nc(C(F)F)c(C(=O)O)n2OCc2csc(N)n2)c1",
    "AUC [ng·h/mL]": 650
  }
]

Read the next record carefully.
For the compound N#Cc1cccc(Oc2nc(-c3cccc(C#N)c3)ncc2C(=O)O)c1 , give its reported AUC.
5360
